Origin of values: patent US5695970A

# Test system: α-1,4-glucan lyase
# ASSAY REMARKS: Reaction mode: complete degradation of substrates by the lyase and final products
# Format: biochemical, Gracilariopsis lemaneiformis
READOUT TYPE: conversion of monosaccharide to 1,5-anhydrofructose by the lyase

COMPOUND | REPORTED VALUE
OC[C@H]1OC(O)[C@H](O)[C@@H](O)[C@H]1O (stereo partly shown) | can not convert
O=C(CO)[C@@H](O)[C@H](O)[C@H](O)CO | can not convert
OC[C@H]1OC(O)[C@H](O)[C@@H](O)[C@@H]1O (stereo partly shown) | can not convert
OC[C@H]1OC(O)[C@@H](O)[C@@H](O)[C@@H]1O (stereo partly shown) | can not convert
